# System: PC-3
# assay_procedure: Growth inhibition of human PC3 cells after 48 hrs by sulforhodamine B assay
# Format: functional
# recorded_conditions: PC-3, 48 h
observed_property: LC50 (concentration killing 50% of cells)

Study these solved cases before continuing.
COc1ccc(/C=N/c2nc3[nH]nc(C)n3c(=O)c2S(=O)(=O)NN2C(=O)C(CN3CCOCC3)SC2c2ccc(OC)cc2)cc1 (centres undefined) | > 100 µM
COc1ccc(/C=N/c2nc3[nH]nc(C)n3c(=O)c2S(=O)(=O)NN2C(=O)C(CN3CCN(C)CC3)SC2c2cccs2)cc1 (centres undefined) | > 100 µM
COc1ccc(/C=N/c2nc3[nH]nc(C)n3c(=O)c2S(=O)(=O)NN2C(=O)C(CN3CCOCC3)SC2c2cccs2)cc1 (centres undefined) | > 100 µM

Identify measured LC50 (concentration killing 50% of cells) corresponding to COc1ccc(/C=N/c2nc3[nH]nc(C)n3c(=O)c2S(=O)(=O)NN2C(=O)C(CN3CCN(C)CC3)SC2c2ccc(OC)cc2)cc1 (centres undefined) 70.2 µM
